targetEntity: human TAS1R2-WT/TAS1R3-A735T (Homo sapiens, UniProt Q7RTX0+Q8TE23, A735T)
Construct: expressed in transfected cells; host or cells: HEK293T stably expressing Gα16gust44
Sequence (Q8TE23 20-839): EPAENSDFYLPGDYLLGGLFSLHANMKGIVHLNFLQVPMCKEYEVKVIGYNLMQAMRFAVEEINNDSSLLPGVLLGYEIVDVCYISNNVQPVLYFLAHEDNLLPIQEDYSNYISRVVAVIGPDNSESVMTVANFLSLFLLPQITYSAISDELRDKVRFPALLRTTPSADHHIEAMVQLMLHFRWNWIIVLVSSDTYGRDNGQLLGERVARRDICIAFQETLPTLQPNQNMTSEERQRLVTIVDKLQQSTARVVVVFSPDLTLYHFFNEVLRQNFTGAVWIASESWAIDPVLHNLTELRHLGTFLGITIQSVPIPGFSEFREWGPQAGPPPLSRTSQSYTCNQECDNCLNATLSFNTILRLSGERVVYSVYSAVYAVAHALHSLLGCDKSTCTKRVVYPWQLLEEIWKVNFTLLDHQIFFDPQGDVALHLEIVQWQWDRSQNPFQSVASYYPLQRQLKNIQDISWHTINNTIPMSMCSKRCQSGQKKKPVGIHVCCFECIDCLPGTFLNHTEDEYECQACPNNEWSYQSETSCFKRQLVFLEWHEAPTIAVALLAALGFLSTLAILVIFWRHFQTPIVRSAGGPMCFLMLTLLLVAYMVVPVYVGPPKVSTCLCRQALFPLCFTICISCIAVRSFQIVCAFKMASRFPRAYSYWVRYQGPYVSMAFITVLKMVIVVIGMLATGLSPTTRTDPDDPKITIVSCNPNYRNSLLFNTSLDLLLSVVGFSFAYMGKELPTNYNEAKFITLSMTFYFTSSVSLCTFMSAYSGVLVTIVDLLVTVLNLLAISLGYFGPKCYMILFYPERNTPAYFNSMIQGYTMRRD
Sequence (Q7RTX0 21-852 A735T): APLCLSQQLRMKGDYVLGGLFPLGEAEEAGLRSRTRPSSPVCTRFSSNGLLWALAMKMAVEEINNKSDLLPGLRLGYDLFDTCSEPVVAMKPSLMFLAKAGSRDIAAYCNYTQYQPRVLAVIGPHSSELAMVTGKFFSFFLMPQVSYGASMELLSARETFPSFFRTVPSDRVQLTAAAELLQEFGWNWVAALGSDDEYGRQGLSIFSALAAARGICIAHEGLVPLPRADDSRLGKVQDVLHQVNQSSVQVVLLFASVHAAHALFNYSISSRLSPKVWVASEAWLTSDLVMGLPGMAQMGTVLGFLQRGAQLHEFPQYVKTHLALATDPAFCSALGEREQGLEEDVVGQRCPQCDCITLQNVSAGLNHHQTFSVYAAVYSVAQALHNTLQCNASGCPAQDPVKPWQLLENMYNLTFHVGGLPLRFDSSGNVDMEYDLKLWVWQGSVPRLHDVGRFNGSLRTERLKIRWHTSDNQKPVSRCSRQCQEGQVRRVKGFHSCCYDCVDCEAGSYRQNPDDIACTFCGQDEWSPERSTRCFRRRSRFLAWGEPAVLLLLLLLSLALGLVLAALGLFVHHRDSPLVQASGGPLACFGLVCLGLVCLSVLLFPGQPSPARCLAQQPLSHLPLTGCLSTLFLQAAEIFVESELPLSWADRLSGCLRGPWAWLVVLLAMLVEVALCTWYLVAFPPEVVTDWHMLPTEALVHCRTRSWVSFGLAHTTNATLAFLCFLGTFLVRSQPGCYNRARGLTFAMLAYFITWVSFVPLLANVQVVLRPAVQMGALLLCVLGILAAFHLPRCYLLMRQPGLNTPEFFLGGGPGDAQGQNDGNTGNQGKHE
assayOverview: Calcium mobilisation assay, TAS1R2-WT with TAS1R3 variant A735T
Assay type: cell-based
reportedConditions: read-out: EC50
Provide the recorded EC50 for the entries that follow.
Expressed in µM, but write only the number.

Query string: Name the reported EC50 value associated with the molecule OC[C@H]1O[C@H](O[C@]2(CCl)O[C@H](CCl)[C@@H](O)[C@@H]2O)[C@H](O)[C@@H](O)[C@H]1Cl [Sucralose]
Result string: 151

Query string: Name the reported EC50 value associated with the molecule COc1ccc(CCC(=O)c2c(O)cc(O[C@@H]3O[C@H](CO)[C@@H](O)[C@H](O)[C@H]3O[C@@H]3O[C@@H](C)[C@H](O)[C@@H](O)[C@H]3O)cc2O)cc1O [NHDC, neohesperidin dihydrochalcone]
Result string: 42.2

Query string: Name the reported EC50 value associated with the molecule C=C1C[C@@]23CC[C@H]4[C@@](C)(CCC[C@@]4(C)C(=O)O[C@@H]4O[C@H](CO)[C@@H](O)[C@H](O[C@@H]5O[C@H](CO)[C@@H](O)[C@H](O)[C@H]5O)[C@H]4O[C@@H]4O[C@H](CO)[C@@H](O)[C@H](O)[C@H]4O)[C@@H]2CC[C@]1(O[C@@H]1O[C@H](CO)[C@@H](O)[C@H](O[C@@H]2O[C@H](CO)[C@@H](O)[C@H](O)[C@H]2O)[C@H]1O[C@@H]1O[C@H](CO)[C@@H](O)[C@H](O)[C@H]1O)C3 [Rebaudioside M, rebaudioside M]
Result string: 23

Query string: Name the reported EC50 value associated with the molecule COC(=O)[C@H](Cc1ccccc1)NC(=O)[C@H](CC(=O)O)NCCC(C)(C)C [Neotame]
Result string: 0.93

Query string: Name the reported EC50 value associated with the molecule C=C(C)[C@@H]1CC=C(/C=N/O)CC1 [Perillartine, perillartine]
Result string: 12.6

Query string: Name the reported EC50 value associated with the molecule O=S(=O)(O)NC1CCCCC1 [Cyclamate, cyclamate]
Result string: 1870

Query string: Name the reported EC50 value associated with the molecule CC1=CC(=O)NS(=O)(=O)O1 [Acesulfame K, acesulfame K]
Result string: 685

Query string: Name the reported EC50 value associated with the molecule C[C@H](CC[C@@H](O[C@@H]1O[C@H](CO[C@@H]2O[C@H](CO)[C@@H](O)[C@H](O)[C@H]2O)[C@@H](O)[C@H](O)[C@H]1O[C@@H]1O[C@H](CO)[C@@H](O)[C@H](O)[C@H]1O)C(C)(C)O)[C@H]1CC[C@@]2(C)[C@@H]3CC=C4[C@@H](CC[C@H](O[C@@H]5O[C@H](CO[C@@H]6O[C@H](CO)[C@@H](O)[C@H](O)[C@H]6O)[C@@H](O)[C@H](O)[C@H]5O)C4(C)C)[C@]3(C)[C@H](O)C[C@]12C [Mogroside V, mogroside V]
Result string: 28.7

Entry source: paper PMC11945486
